assay: in vitro; conditions: human, hela cells, % viability
Could you please report measured viability at 28.5 h, 10 µM for the items listed next?
Give bare numbers, in %.

Guide cases for viability at 28.5 h, 10 µM, answers given:
CC(=O)Nc1ccc(N2C(=O)CC(NCCCN3CCOCC3)C2=O)cc1 (stereo not shown) [CBK265236] = 115
CCc1noc(CN2CCCC(c3ccc(C(=O)O)cc3)C2)n1 (stereo not shown) [CBK307102] = 105
Cc1nccn1CCC1CCN(C(=O)CC2CCCCO2)CC1 (stereo not shown) [CBK281974] = 84.3

Each compound below has a reported value. Please supply its viability at 28.5 h, 10 µM.
1. CCNC(=O)Nc1ccc(-c2ccc3c(c2)OCCCO3)c2ccccc12 [CBK083726]
2. O=[N+]([O-])c1ccc2c(c1)C(N1CCOCC1)/C(=C/C1(O)CCCCC1)O2 (stereo not shown) [CBK263200]
3. CCOC(=O)c1cnc(O/N=C(\N)c2ccc(C(C)(C)C)cc2)nc1C(F)(F)F [CBK022142]

1. 89.4
2. 103
3. 103

Each compound below has a reported value. Please supply its viability at 28.5 h, 10 µM.
1. COC(=O)c1ccc(-n2cc(-c3cccc(C(F)(F)F)c3)nn2)cc1 [CBK112936]
2. CCN1CCN(C(=O)c2ccc(N(C)C)cc2)CC1 [CBK200252]
3. Clc1ccccc1OCCNC1CCc2[nH]c3ccccc3c2C1 (stereo not shown) [CBK107790]
4. CC1CCCC(C)N1CC(O)COc1ccc(/N=C/c2ccccc2O)cc1 (stereo not shown) [CBK261748]
5. COc1ccc(-c2cc(C(=O)NCc3nc4ccccc4[nH]3)cnc2-c2ccccc2)cn1 [CBK037579]
6. COc1ccc(NC(=O)C2C3CCC(C3)C2C(=O)O)cc1OC (stereo not shown) [CBK263684]
7. O=C(CCSc1c(Cl)cccc1[N+](=O)[O-])Nc1ccc(Br)c2cccnc12 [CBK266777]
8. COCCN1C(=O)C2(CC(=O)N(CC3CCCCC3)C2=O)c2cc(OC)ccc21 (stereo not shown) [CBK075166]

[90, 96.4, 107, 89.6, 99.6, 95.3, 101, 90]

Each compound below has a reported value. Please supply its viability at 28.5 h, 10 µM.
1. Cc1cc([N+](=O)[O-])ccc1/N=C\c1ccc(C(=O)O)cc1 [CBK262058]
2. Cc1cc(C(=O)Nc2cccc3cc[nH]c23)ccc1Cl [CBK160078]

1. 95.4
2. 96.2
